system: operator; assay: Biacore SPR operator binding characterization of repressors
readout type: ka (M⁻¹ s⁻¹)
Numbers only here, please. The scale is M⁻¹ s⁻¹.

Read off the recorded ka for L7-3E03-D1: ethametsulfuron repressor (EsR), SEQ ID NO:411 (protein, Sulfonylurea responsive repressor L7-3E3-D1) MARLDKSKVINSALELLNEVGIEGLTTRKLAQKLGVEQPTLYWHVKNKRALLDAMAIEMLDRHATHYCPLEGESWQDFLRNNAKSMRCALLSHRDGAKVCLGTGFTEQQYETAENSLAFLCQQGFSLEHAMYAMQAAGIYTLGCVLLDQELQVAKEERETPTTDSMPPLVRQALELKDHQGAEPAFLFGLELIICGLEKQLKCESGS
55000

Hey, just so you know, these numbers are from patent US20110287936A1.
